meta.source: patent US9789116B2

- Target: recombinant 15-PGDH (Homo sapiens (Human), UniProt P15428)
- Sequence (P15428 whole entry): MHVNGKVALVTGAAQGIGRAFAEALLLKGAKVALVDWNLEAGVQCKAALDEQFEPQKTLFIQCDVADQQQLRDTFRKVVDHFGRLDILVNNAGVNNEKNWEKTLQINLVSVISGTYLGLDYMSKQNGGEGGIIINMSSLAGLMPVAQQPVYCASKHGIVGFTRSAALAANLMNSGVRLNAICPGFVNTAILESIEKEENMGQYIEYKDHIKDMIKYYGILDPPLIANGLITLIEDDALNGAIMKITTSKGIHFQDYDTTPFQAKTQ
- Assay comment: Inhibition of enzymatic activity of recombinant 15-PGDH in vitro (NADH generation)
- Assay type: biochemical
- Test conditions: read-out: Enzyme Inhibitor IC50 (nM) at 5 nM 15-PGDH; 5 nM recombinant human 15-PGDH
Parameter: IC50 (nM)
Value expressed in nM; do not type the unit.

[Q] Data request, read-out IC50, for CC(=O)OCCCCS(=O)(=O)c1sc2nc(-c3cccs3)cc(-c3ccccc3)c2c1N [SW209128]
[A] 4910

====

- Assay comment: Hepatocyte stability
- Type: in vitro ADME
- Test conditions: hepatocytes in culture; read-out: Hepatocyte stability T½
Parameter: half-life (h)
Value expressed in h; do not type the unit.

[Q] Data request, read-out half-life, for CCCC[S+]([O-])c1sc2nc(-c3cccs3)ccc2c1N (stereo not shown)
[A] 1.33
